Data provenance: patent US7595395B2

biological target: α6β3γ2 benzodiazepine receptor GABA(A) isoform (UniProt P18507+Q16445); experiment: Radioligand competition binding, α6β3γ2 BzR/GABA(A) isoform; parameters: species or system human and rat; settings: read-out: α6; untitled table of lead compounds, unit inferred
READOUT: Ki

QUERY_SMILES: COCc1ncn2c1CN(C)C(=O)c1cc(Cl)ccc1-2
Ki: > 300 nM

## Input Hi! What's the reported Ki for CCOC(=O)c1ncn2c1CN=C(c1ccccc1)c1cc(-c3ccccc3)ccc1-2 on α6β3γ2 benzodiazepine receptor GABA(A) isoform (UniProt P18507+Q16445)?
## Output > 2000 nM

* * *

Target: α4β3γ2 benzodiazepine receptor GABA(A) isoform (UniProt P18507+P48169)
Test: Radioligand competition binding, α4β3γ2 BzR/GABA(A) isoform
Design: species or system human and rat
Conditions: Table I; means of two determinations; read-out: Ki α4
Procedure: The affinity of all ligands at the 6 major recombinant GABAA/BzR subtypes was measured by competition for [^3H]Ro15-1788 binding to HEK-T cells expressing both human and rat GABAA/Bz receptors of composition α1β2γ2 (α1), α2β2γ2 (α2), α3β2γ2 (α3), α4β2γ2 (α4), α5β2γ2 (α5) and α6β2γ2 (α6). It is well known that the β2 and β3 subunits can be interchanged with no effect on Bz ligand affinity or efficacy. […]
pKi: −log10 of the molar value.
READOUT: pKi

## Input Fill in the blank: the reported pKi of CCOC(=O)c1ncn2c1CN=C(c1ccccc1)c1cc(-c3ccccc3)ccc1-2 [DM-I-81] is ____.
## Output < 5.70

* * *

Molecular target: α5β3γ2 benzodiazepine receptor GABA(A) isoform (UniProt P18507+P31644)
Sequence (P18507 1-475): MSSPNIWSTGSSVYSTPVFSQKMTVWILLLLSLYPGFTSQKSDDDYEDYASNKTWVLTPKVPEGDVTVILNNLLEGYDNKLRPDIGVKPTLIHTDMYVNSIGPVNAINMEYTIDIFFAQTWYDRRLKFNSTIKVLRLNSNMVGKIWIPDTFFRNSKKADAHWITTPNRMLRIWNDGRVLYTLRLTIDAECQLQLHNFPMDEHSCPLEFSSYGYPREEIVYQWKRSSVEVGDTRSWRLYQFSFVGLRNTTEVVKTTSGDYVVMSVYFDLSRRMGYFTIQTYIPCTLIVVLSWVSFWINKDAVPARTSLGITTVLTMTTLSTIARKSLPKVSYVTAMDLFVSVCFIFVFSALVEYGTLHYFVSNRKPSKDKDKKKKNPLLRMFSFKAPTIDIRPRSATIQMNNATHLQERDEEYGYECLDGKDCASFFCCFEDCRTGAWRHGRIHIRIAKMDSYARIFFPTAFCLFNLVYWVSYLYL
Sequence (P31644 1-462): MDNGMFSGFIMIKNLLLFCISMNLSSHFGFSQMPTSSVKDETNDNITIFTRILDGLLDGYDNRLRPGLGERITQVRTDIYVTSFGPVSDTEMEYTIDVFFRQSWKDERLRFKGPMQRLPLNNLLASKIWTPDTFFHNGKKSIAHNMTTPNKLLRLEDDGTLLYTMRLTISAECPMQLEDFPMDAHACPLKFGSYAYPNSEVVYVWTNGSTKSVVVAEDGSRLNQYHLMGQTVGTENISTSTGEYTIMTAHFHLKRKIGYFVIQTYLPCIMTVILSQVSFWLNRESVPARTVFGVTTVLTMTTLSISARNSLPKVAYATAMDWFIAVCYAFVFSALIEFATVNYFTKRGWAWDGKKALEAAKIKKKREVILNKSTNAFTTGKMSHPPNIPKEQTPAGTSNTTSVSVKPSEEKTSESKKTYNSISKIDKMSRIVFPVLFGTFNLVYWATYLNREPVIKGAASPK
Test: Radioligand competition binding, α5β3γ2 BzR/GABA(A) isoform
Design: Ki α5; means of two determinations; Ki α5; α5; other: text; species or system human and rat
Conditions: read-out: Ki α5; Table I; means of two determinations
# key: entry, value: Ki
Form entry: value (nM) — number only.

// worked examples, Ki included
COMPOUND: C#CC#Cc1ccc2c(c1)C(=O)N1CCC[C@H]1c1c(C(=O)OCC)ncn1-2
TARGET_DESC: α5β3γ2 benzodiazepine receptor GABA(A) isoform (UniProt P18507+P31644)
READING: 64
//
COMPOUND: CCOCc1ncn2c1CN(C)C(=O)c1cc(Cl)ccc1-2 [Ligand 12c]
TARGET_DESC: α5β3γ2 benzodiazepine receptor GABA(A) isoform (UniProt P18507+P31644)
READING: 82.7
//
COMPOUND: CN1Cc2c(CCl)ncn2-c2ccc(Cl)cc2C1=O [Ligand 12b]
TARGET_DESC: α5β3γ2 benzodiazepine receptor GABA(A) isoform (UniProt P18507+P31644)
READING: 28.5
//
COMPOUND: CCOC(=O)c1ncn2c1CN=C(c1ccccc1)c1cc(-c3ccccc3)ccc1-2
TARGET_DESC: α5β3γ2 benzodiazepine receptor GABA(A) isoform (UniProt P18507+P31644)
READING: 176

From here, focus on the item given below.
## Input Query for α5β3γ2 benzodiazepine receptor GABA(A) isoform (UniProt P18507+P31644): what Ki does the record show for COCc1ncn2c1CN(C)C(=O)c1cc(Cl)ccc1-2 ?
## Output 38.8

* * *

Target: α6β3γ2 benzodiazepine receptor GABA(A) isoform (UniProt P18507+Q16445)
Assay: Radioligand competition binding, α6β3γ2 BzR/GABA(A) isoform
Design: species or system human and rat
Conditions: read-out: Ki α6; Table I; means of two determinations
Method: The affinity of all ligands at the 6 major recombinant GABAA/BzR subtypes was measured by competition for [^3H]Ro15-1788 binding to HEK-T cells expressing both human and rat GABAA/Bz receptors of composition α1β2γ2 (α1), α2β2γ2 (α2), α3β2γ2 (α3), α4β2γ2 (α4), α5β2γ2 (α5) and α6β2γ2 (α6). It is well known that the β2 and β3 subunits can be interchanged with no effect on Bz ligand affinity or efficacy. […]
pKi: −log10 of the molar value.
Parameter: pKi. Scope: all listed entries.

## Input Need pKi, item CCOC(=O)c1ncn2c1CN=C(c1ccccc1)c1cc(-c3ccccc3)ccc1-2 [DM-I-81]
## Output < 5.70

## Input Look at this compound and give its reported pKi. COCc1ncn2c1CN(C)C(=O)c1cc(Cl)ccc1-2 [PWZ-029]
## Output < 6.52

* * *

Ki: recorded values
target: α3β3γ2 benzodiazepine receptor GABA(A) isoform (UniProt P18507+P34903); test: Radioligand competition binding, α3β3γ2 BzR/GABA(A) isoform; design: species or system human and rat; settings: Table 2; means of two determinations; read-out: Ki α3
Field format: number, assumed µM, no unit text.

COMPOUND: C#Cc1ccc2c(c1)C(=O)N1CC[C@H]1c1c(-c3ocnc3C(=O)OCC)ncn1-2 [RY069]
READOUT: Ki
READING: 0.506

Here is the next item to consider.
## Input Name the reported Ki value associated with the compound CCOC(=O)c1ncoc1-c1ncn2c1[C@@H]1CCN1C(=O)c1cc(C#C[Si](C)(C)C)ccc1-2 [RY068]
## Output 0.496

* * *

biological target: α5β3γ2 benzodiazepine receptor GABA(A) isoform (UniProt P18507+P31644); test: Radioligand competition binding, α5β3γ2 BzR/GABA(A) isoform; parameters: rows headed: Ki at α5β3γ2 subtypes; other: text; α1-6β3γ2 LTK cells; species or system human and rat; conditions: read-out: Ki at α5β3γ2 subtypes; α1-6β3γ2 LTK cells
READOUT: Ki (nM)
Just the number please, in nM, no unit attached.

## Input Give Ki (α5β3γ2 benzodiazepine receptor GABA(A) isoform (UniProt P18507+P31644)) of the following compound: C#Cc1ccc2c(c1)C(=O)N(C)Cc1c(C(=O)OCCCOC(=O)c3ncn4c3CN(C)C(=O)c3cc(C#C)ccc3-4)ncn1-2 [XLi-093]
## Output 15

* * *

biological target: α4β3γ2 benzodiazepine receptor GABA(A) isoform (UniProt P18507+P48169); assay: Radioligand competition binding, α4β3γ2 BzR/GABA(A) isoform; parameters: species or system human and rat; details: untitled table of lead compounds, unit inferred; read-out: α4
pKi: −log10 of the molar value.
READOUT: pKi

## Input Which pKi value is on record for CCOC(=O)c1ncn2c1CN=C(c1ccccc1)c1cc(-c3ccccc3)ccc1-2 ?
## Output < 5.70

* * *

target: α1β3γ2 benzodiazepine receptor GABA(A) isoform (UniProt P14867+P18507); assay: Radioligand competition binding, α1β3γ2 BzR/GABA(A) isoform; set-up: Ki α1; means of two determinations; Ki α1; α1; species or system human and rat; conditions: read-out: Ki α1; Table 2; means of two determinations
READOUT: pKi
As a rule, pKi stands for the negative log10 of the concentration, concentration in M.

## Input Item CCc1ccc2c(c1)C(=O)N(C)Cc1c(C(=O)OCCCOC(=O)c3ncn4c3CN(C)C(=O)c3cc(CC)ccc3-4)ncn1-2 [XLi356] has what recorded pKi?
## Output 5.62
